tested target: α2β1 integrin (Homo sapiens, UniProt P05556+P17301)
Sequence (P17301 30-1181): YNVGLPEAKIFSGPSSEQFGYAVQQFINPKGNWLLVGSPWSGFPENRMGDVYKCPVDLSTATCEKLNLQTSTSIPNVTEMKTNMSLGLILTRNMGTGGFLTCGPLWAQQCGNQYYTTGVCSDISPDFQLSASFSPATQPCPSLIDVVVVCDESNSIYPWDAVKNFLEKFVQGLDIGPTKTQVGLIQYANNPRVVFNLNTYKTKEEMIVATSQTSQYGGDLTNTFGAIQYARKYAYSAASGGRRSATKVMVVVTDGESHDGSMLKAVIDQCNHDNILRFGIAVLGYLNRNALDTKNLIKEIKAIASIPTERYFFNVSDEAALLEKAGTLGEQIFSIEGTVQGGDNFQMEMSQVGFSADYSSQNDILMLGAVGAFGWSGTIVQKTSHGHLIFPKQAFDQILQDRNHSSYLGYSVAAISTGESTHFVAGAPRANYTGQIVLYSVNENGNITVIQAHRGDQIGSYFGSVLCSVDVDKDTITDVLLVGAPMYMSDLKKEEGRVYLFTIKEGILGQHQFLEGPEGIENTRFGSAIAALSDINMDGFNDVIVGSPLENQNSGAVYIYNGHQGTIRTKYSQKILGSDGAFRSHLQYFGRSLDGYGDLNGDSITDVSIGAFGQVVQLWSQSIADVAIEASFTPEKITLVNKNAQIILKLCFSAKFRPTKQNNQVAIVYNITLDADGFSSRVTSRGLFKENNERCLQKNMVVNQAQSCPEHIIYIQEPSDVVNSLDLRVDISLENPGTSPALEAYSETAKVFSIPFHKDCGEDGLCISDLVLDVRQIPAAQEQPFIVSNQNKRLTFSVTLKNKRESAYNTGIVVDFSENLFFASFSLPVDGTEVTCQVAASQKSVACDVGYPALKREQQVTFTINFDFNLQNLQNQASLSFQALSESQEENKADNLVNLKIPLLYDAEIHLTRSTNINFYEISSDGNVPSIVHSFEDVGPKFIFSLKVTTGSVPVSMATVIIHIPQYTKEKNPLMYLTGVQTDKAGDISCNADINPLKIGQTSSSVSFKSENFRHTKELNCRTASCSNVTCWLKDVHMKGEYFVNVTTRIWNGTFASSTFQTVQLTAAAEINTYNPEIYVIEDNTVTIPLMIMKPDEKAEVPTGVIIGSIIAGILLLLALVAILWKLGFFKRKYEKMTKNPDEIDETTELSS
Sequence (P05556 21-798 partner): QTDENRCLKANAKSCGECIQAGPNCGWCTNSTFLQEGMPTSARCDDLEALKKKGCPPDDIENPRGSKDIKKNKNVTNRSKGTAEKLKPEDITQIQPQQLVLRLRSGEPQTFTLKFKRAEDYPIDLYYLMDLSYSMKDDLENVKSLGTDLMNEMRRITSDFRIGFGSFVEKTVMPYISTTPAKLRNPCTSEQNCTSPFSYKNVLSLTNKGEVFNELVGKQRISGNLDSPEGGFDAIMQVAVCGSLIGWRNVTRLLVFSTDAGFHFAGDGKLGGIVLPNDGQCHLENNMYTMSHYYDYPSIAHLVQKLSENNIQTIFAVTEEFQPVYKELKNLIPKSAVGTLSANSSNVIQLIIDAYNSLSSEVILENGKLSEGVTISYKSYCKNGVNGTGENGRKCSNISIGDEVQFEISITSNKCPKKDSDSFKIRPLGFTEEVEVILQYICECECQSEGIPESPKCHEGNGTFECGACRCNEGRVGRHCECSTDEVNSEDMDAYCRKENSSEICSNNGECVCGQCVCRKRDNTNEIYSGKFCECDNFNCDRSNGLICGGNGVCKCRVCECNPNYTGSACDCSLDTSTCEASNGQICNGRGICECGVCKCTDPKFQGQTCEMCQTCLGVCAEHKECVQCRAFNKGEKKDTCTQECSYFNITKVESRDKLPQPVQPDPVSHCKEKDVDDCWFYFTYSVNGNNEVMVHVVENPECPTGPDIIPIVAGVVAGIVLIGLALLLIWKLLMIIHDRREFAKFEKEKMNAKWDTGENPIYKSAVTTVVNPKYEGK
assay procedure: Cell adhesion assay
Assay type: cell-based
protocol conditions: read-out: EC50 in cell adhesion assay
Would you kindly list EC50 for each of these compounds?
Give bare numbers, in µM.

Examples with their reported EC50 follow.
Item: Cc1cc2c(n1-c1ccc(NS(=O)(=O)c3ccc(Cl)c(Cl)c3)cc1)CC(C)(C)CC2=O | System: α2β1 integrin (Homo sapiens, UniProt P05556+P17301) | EC50: 19

The observed EC50 for O=S(=O)(Nc1ccc(Nc2nc(Cl)nc(Cl)c2Cl)cc1)c1ccc(Cl)cc1 when tested with α2β1 integrin (Homo sapiens, UniProt P05556+P17301) stands at 24

Form field EC50 for item Cc1cc2cc(N(C)S(=O)(=O)c3ccc(Cl)cc3Cl)ccc2n1C on α2β1 integrin (Homo sapiens, UniProt P05556+P17301): 6

// EC50 (α2β1 integrin (Homo sapiens, UniProt P05556+P17301)) for CN(C)c1ccc(N(C)S(=O)(=O)c2ccc(Cl)cc2Cl)cc1 = 13

Observed EC50 on α2β1 integrin (Homo sapiens, UniProt P05556+P17301), entry CN(C)c1ccc(NS(=O)(=O)c2cc(Br)c(F)cc2F)cc1 , equals 39

The observed EC50 for CN(c1ccc2c(c1)c1ccccc1n2C)S(=O)(=O)c1ccc(Cl)cc1Cl when tested with α2β1 integrin (Homo sapiens, UniProt P05556+P17301) stands at 10

Entry Cc1cc(C)nc(Nc2ccc(NS(=O)(=O)c3cccc(-c4ccc(F)cc4)c3)cc2)n1 , α2β1 integrin (Homo sapiens, UniProt P05556+P17301) data, EC50 value: 36

Record for Cn1ccc2cc(NS(=O)(=O)c3cccc(-c4ccc(F)cc4)c3)ccc21 under target or system α2β1 integrin (Homo sapiens, UniProt P05556+P17301): EC50 reported as 20

Hi, could you look up EC50 for each item in my list?
1. CN(C)c1ccc(N(C)S(=O)(=O)c2cccc(-c3ccc(F)cc3)c2)cc1
2. O=S(=O)(Nc1ccc(-n2cccn2)cc1)c1cccc(-c2ccc(F)cc2)c1
3. O=S(=O)(Nc1ccc2cc[nH]c2c1)c1ccc(Cl)cc1Cl
4. O=S(=O)(Nc1ccc2c(c1)OCO2)c1cccc(-c2ccc(F)cc2)c1
5. CN(C)c1ccc(NS(=O)(=O)c2cc(-c3ccc(F)cc3)c(Cl)s2)cc1

[A]
7
26
34
19
10

Batch request: EC50 for each of the following compounds.
1. O=S(=O)(Nc1ccc(-n2cnc(Cl)c2Cl)cc1)c1ccc2ccccc2c1
2. CSc1nc2ccc(NS(=O)(=O)c3ccc(Cl)cc3Cl)cc2s1

[A]
[20, 40]

---

Could you please report measured Emax for the items listed next?
tested target: α2β1 integrin (Homo sapiens, UniProt P05556+P17301)
assay procedure: Cell adhesion assay
Format: cell-based
protocol conditions: concentration not given; read-out: Emax in cell adhesion assay
Numbers only, in %.

# Emax of Cc1cc(C)nc(Nc2ccc(NS(=O)(=O)c3cccc(Br)c3)cc2)n1 [Compound 183] = 81

// sample CSc1nc2ccc(NS(=O)(=O)c3ccc(Cl)cc3Cl)cc2s1 [Compound 132] , its Emax was 90

The recorded Emax for O=S(=O)(Nc1ccc(-n2ccnc2)cc1)c1cccc(-c2ccc(F)cc2)c1 [Compound 300] is 50

Record summary for Cc1nc2ccc(NS(=O)(=O)c3cccc(-c4ccc(F)cc4)c3)cc2o1 [Compound 187] : reported Emax = 87

Short answer for COc1cccc(-c2cccc(S(=O)(=O)Nc3ccc(N(C)C)cc3)c2)c1 [Compound 204] : Emax was 63

Consider Cc1cc(F)ccc1-c1cccc(S(=O)(=O)N(C)c2ccc(N(C)C)cc2)c1 [Compound 321] . Its measured Emax is 55

Value of measured Emax for the entry Cc1cc2c(n1-c1ccc(NS(=O)(=O)c3ccc(-c4cnco4)s3)cc1)CC(C)(C)CC2=O [Compound 258] : 66

Recorded result, O=S(=O)(Nc1ccc(-n2cccn2)cc1)c1cccc(-c2ccc(F)cc2)c1 [Compound 297] , Emax: 80

Entry Cc1cc2c(n1-c1ccc(NS(=O)(=O)c3ccc(Cl)c(Cl)c3)cc1)CC(C)(C)CC2=O [Compound 269] , Emax reported as 64

Reported Emax of CN(C)c1ccc(NS(=O)(=O)c2cccc(-c3cccc(F)c3)c2)cc1 [Compound 203] : 86

For each entry beneath this line, provide reported Emax.
1. Cc1nc2cc(N(C)S(=O)(=O)c3cccc(-c4ccc(F)cc4)c3)ccc2o1 [Compound 295]
2. COc1ccc(NS(=O)(=O)c2cccc(-c3ccc(F)cc3)c2)cc1 [Compound 250]

[A]
1: 56; 2: 89

List reported Emax for each of these compounds:
1. Cc1cc2c(n1-c1ccc(NS(=O)(=O)c3ccc(C(F)(F)F)cc3Cl)cc1)CC(C)(C)CC2=O [Compound 283]
2. Cc1cc2cc(NS(=O)(=O)c3ccc(Cl)cc3Cl)ccc2[nH]1 [Compound 131]

[A]
[63, 58]

Provide Emax for all items below, preserving their order.
1. CC(C)(C)c1cc2cc(NS(=O)(=O)c3cccc(-c4ccc(F)cc4)c3)ccc2[nH]1 [Compound 291]
2. Cc1cc(F)ccc1-c1cccc(S(=O)(=O)Nc2ccc(N(C)C)cc2)c1 [Compound 222]

[A]
1. 50
2. 66

Looking up O=S(=O)(Nc1ccc2c(c1)OCO2)c1cccc(-c2ccc(F)cc2)c1 [Compound 186] , I found its Emax recorded as 91

Reference for the values: patent US20080255169A1
